- ASSAY SUMMARY: Intestinal S9 Assay (human GI S9)
- Format: in vitro ADME
- CONDITIONS USED: 2 μM, 1.0 mg/mL S9 protein, TRIS pH 7.4
With a cut-off of 20%, any Human GI S9 [Intermediate A] % strictly below it is called 1; any Human GI S9 [Intermediate A] % meeting it or above is called -1.

[[record]]
test_smiles = "COC(=O)N[C@H](C(=O)N[C@@H](Cc1ccc(C#Cc2cnc(N3CC4CCC(C3)N4C3COC3)nc2)cc1)[C@H](CN(Cc1c(F)cc(-c2ccn(C(F)F)n2)cc1F)NC(=O)[C@@H](NC(=O)OC)C(C)(C)C(F)(F)F)OC(=O)CC(C)(C)c1c(CC(=O)NCC(=O)O)cccc1OP(=O)(O)O)C(C)(C)C(F)(F)F"
label_value = -1

[[record]]
test_smiles = "COC(=O)N[C@H](C(=O)N[C@@H](Cc1ccc(C#Cc2cnc(N3CC4CCC(C3)N4C3COC3)nc2)cc1)[C@H](CN(Cc1c(F)cc(-c2ccn(C(F)F)n2)cc1F)NC(=O)[C@@H](NC(=O)OC)C(C)(C)C(F)(F)F)OC(=O)CC(C)(C)c1c(CC(=O)N[C@@H](CCC(=O)O)C(=O)O)cc(C)cc1OP(=O)(O)O)C(C)(C)C(F)(F)F"
label_value = -1

[[record]]
test_smiles = "COC(=O)N[C@H](C(=O)N[C@@H](Cc1ccc(C#Cc2cnc(N3CC4CCC(C3)N4C3COC3)nc2)cc1)[C@H](CN(Cc1c(F)cc(-c2ccn(C(F)F)n2)cc1F)NC(=O)[C@@H](NC(=O)OC)C(C)(C)C(F)(F)F)OC(=O)CC(C)(C)c1c(CC(=O)Nc2cc(C(=O)O)cc(C(=O)O)c2)cccc1OP(=O)(O)O)C(C)(C)C(F)(F)F"
label_value = -1

[[record]]
test_smiles = "COC(=O)N[C@H](C(=O)N[C@@H](Cc1ccc(C#Cc2cnc(N3CC4CCC(C3)N4C3COC3)nc2)cc1)[C@H](CN(Cc1c(F)cc(-c2ccn(C(F)F)n2)cc1F)NC(=O)[C@@H](NC(=O)OC)C(C)(C)C(F)(F)F)OC(=O)CC(C)(C)c1c(CC(=O)NCc2ccc(S(N)(=O)=O)cc2)cc(C)cc1OP(=O)(O)O)C(C)(C)C(F)(F)F"
label_value = 1

[[record]]
test_smiles = "COC(=O)N[C@H](C(=O)N[C@@H](Cc1ccc(C#Cc2cnc(N3CC4CCC(C3)N4C3COC3)nc2)cc1)[C@H](CN(Cc1c(F)cc(-c2ccn(C(F)F)n2)cc1F)NC(=O)[C@@H](NC(=O)OC)C(C)(C)C(F)(F)F)OC(=O)CC(C)(C)c1c(CC(=O)N2C[C@@H](C(=O)O)C[C@H]2C(=O)O)cc(C)cc1OP(=O)(O)O)C(C)(C)C(F)(F)F"
label_value = 1


hey, is Human GI S9 [Intermediate A] % for "COC(=O)N[C@H](C(=O)N[C@@H](Cc1ccc(C#Cc2cnc(N3CC4CCC(C3)N4C3COC3)nc2)cc1)[C@H](CN(Cc1c(F)cc(-c2ccn(C(F)F)n2)cc1F)NC(=O)[C@@H](NC(=O)OC)C(C)(C)C(F)(F)F)OC(=O)CC(C)(C)c1c(CC(=O)Nc2cccc(C(=O)O)c2)cc(C)cc1OP(=O)(O)O)C(C)(C)C(F)(F)F" lower than 20% or not? 1

Is the reported Human GI S9 [Intermediate A] % for "COC(=O)N[C@H](C(=O)N[C@@H](Cc1ccc(C#Cc2cnc(N3CC4CCC(C3)N4C3COC3)nc2)cc1)[C@H](CN(Cc1c(F)cc(-c2ccn(C(F)F)n2)cc1F)NC(=O)[C@@H](NC(=O)OC)C(C)(C)C(F)(F)F)OC(=O)CC(C)(C)c1c(CC(=O)N[C@@H](CCC(=O)O)C(=O)O)cccc1OP(=O)(O)O)C(C)(C)C(F)(F)F" strictly below 20%? -1
